This listing pairs binders with measured OD450 at 0.02 µg/mL.
Target: T1, PD-1 protein (human, UniProt Q15116 25-167, limits assumed)
T1 construct: also called human PD-1
T1 sequence (Q15116 25-167 limits assumed): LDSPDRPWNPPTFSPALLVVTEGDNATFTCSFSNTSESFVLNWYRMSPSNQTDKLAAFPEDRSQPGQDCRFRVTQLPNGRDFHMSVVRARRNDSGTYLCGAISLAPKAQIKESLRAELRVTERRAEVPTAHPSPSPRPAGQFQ
Assay: ELISA, PD-1 coated
Please respond with the number in OD450 and leave the unit unwritten.

Binder	OD450 at 0.02 µg/mL, OD450
504#SS23 (Fc fusion, not shown: a dimerising Fc or GST; small tags and cut ends, VHH-FC construct from HEK293 cells) VHH: QVQLVESGGGLVQPGGSLRLSCAASGFTFSSYVMSWVRQAPGKGLEWVSAINSGGSSSSYPESVKDRFTVSRDNAKNTLYLQMNSLKPEDTAVYFCAAKNVPGFYYSDYANHEYDYWGQGTQVTVSS	1.22

Sample 504#SS1 (Fc fusion, VHH-FC construct from HEK293 cells; not shown: The (G4S)3 linker leading to it is left out with it) VHH: QVQLVESGGGLVQAGGSLRLSCAASGLTFSDFAMGWFRQAPGKEREFVAAISWSGGQTYNVESAKGRFTISRDNAKNTVYLQMNKLKPDDTAVYYCAASTMVVTTVAADYKYWGQGTQVTVSS ; OD450 at 0.02 µg/mL observed: 0.03

The value of OD450 at 0.02 µg/mL measured for the binder 504#SS30 (Fc fusion, not shown: a dimerising Fc or GST; small tags and cut ends, VHH-FC construct from HEK293 cells) VHH: EVQLVETGGGLVQAGGSLRLACEVSGRTFSSYAMGWFRQAPGREREFVASIRVSGGITDYADSVKGRFTISRDNAKDTVYLQMINLKPEDTAVYYCNADISRYRFSRGDYWGKGTLVTVSS turned out to be 0.03

Entry 504#SS14 (Fc fusion, not shown: a dimerising Fc or GST; small tags and cut ends, VHH-FC construct from HEK293 cells) VHH: QVQLVESGGGLVQPGGSLRLSCVASGFTFSSYWMYWVRQAPGKGLEWVSAIDTTGGSTAYTHSVKGRFTISRDNARNTLYLQMNNLKSEDTAVYYCANSTYFNDDPEYDRWGQGTQVTVSS — recorded OD450 at 0.02 µg/mL = 0.03

// recorded OD450 at 0.02 µg/mL for 504#SS5 (Fc fusion, VHH-FC construct from HEK293 cells; not shown: The (G4S)3 linker leading to it is left out with it) VHH: QVQLVESGGGSAQAGGSLRLSCTASGRPFSIYDMGWFRQAPGKERESVAVINLSRGNTYYADSVKGRFTISLDSAKNTVYLQMNSLKPEDTAVYSCGVDRRQYGLGIPPLADYWGQGTQVTVSS : 2.79

Sample 504#SS12 (Fc fusion, not shown: a dimerising Fc or GST; small tags and cut ends, VHH-FC construct from HEK293 cells) VHH: EVQVVESGGGLVQPGGSLRLSCAVSGRGFSEHAMGWYRQSPGKQREFVAGVTSYGGTNYADSVKGRFTISRDNVGNTVFLQMNSLKPEDTAVYYCNYKRGHYPDGVSTYEYWGQGTQVTVSS ; OD450 at 0.02 µg/mL observed: 0.03

The value of OD450 at 0.02 µg/mL measured for the binder 504#SS16 (Fc fusion, not shown: a dimerising Fc or GST; small tags and cut ends, VHH-FC construct from HEK293 cells) VHH: EVQVVESGGGLVQAGGSLRLSCAVSGRTFSSYVMGWFRQAPGKERDFVAAISRSGGRTWYADSVKGRFTISFDNAKNTVYLQMNSLKPEDTASYYCNTDYTFAKLTAPDRRNDDWGQGTQVTVSS turned out to be 0.04

The reported OD450 at 0.02 µg/mL of the binder 504#SS28 (Fc fusion, not shown: a dimerising Fc or GST; small tags and cut ends, VHH-FC construct from HEK293 cells) VHH: QVQLVESGGGSVQPGGSLRLSCAVSGFTLDYYDIGWFRQAPGKERDWISCISSSDGSQYYADSVKDRFFISRDNAKNTVYLQMNSLEPGDTAVYYCAADFDTYRFCSGFGPDAYSSWGQGTQVIVSS was 0.93

Lookup result for 504#SS9 (Fc fusion, VHH-FC construct from HEK293 cells; not shown: The (G4S)3 linker leading to it is left out with it) VHH: EVQLQESGGGLVQAGGSLRLSCAASGRSFSGYAMAWFRQAPGKEREFVAAVNWNGGSTYYADSVKGRFTISRDNAKDTVYLQMNSLKPEDTAVYYCNARPTFGAYYSDYKSGVDYWGQGTQVTVSS ; measured OD450 at 0.02 µg/mL: 0.03
